Hello, the source for this data is patent US9422240B2, in case you need it.

TESTED SYSTEM: human PHD2 (Homo sapiens (Human))
ASSAY DETAILS: Test 2: human PHD2 inhibitory activity, fluorescence polarization assay of HIF-1α peptide proline hydroxylation
Assay type: biochemical
SETTINGS: test compound's concentration 1 μM; Test 2, fluorescence polarization assay; read-out: Percent inhibition (% at 1 μM)
The label depends only on inhibition at 1 µM: true if it is at least 80%, false if it is smaller.

Hi, just wondering whether O=C(O)CNC(=O)C1=C(O)CCN(C[C@H]2CC[C@H](Oc3ccc(Cl)cc3)CC2)C1=O shows inhibition at 1 µM of 80% or higher.
true

Hi, just wondering whether Cc1ccc(-c2ccc(CN3CCC(O)=C(C(=O)NCC(=O)O)C3=O)cn2)cc1 shows inhibition at 1 µM of 80% or higher.
true

Hi, just wondering whether O=C(O)CNC(=O)C1=C(O)CCN(Cc2ccc(OCCO)cc2)C1=O shows inhibition at 1 µM of 80% or higher.
false

Hi, just wondering whether Cc1ccc(CN2C(=O)C(C(=O)NCC(=O)O)=C(O)CC23CCCCC3)cc1 shows inhibition at 1 µM of 80% or higher.
false

Hi, just wondering whether Cc1ccc(COc2ccc(CN3CCC(O)=C(C(=O)NCC(=O)O)C3=O)cc2)cn1 shows inhibition at 1 µM of 80% or higher.
true

Hi, just wondering whether CC1CC(O)=C(C(=O)NCC(=O)O)C(=O)N1Cc1ccc(OCC2CC2)cc1 (centres unmarked) shows inhibition at 1 µM of 80% or higher.
false

Hi, just wondering whether O=C(O)CNC(=O)C1=C(O)CCN(C[C@H]2CC[C@H](OCc3ccccc3)CC2)C1=O shows inhibition at 1 µM of 80% or higher.
true

Hi, just wondering whether O=C(O)CNC(=O)C1=C(O)CCN(Cc2ccc(OCc3ccc(Cl)cn3)cc2)C1=O shows inhibition at 1 µM of 80% or higher.
true

---

TESTED SYSTEM: human PHD2 (Homo sapiens (Human))
ASSAY DETAILS: Test 2: human PHD2 inhibitory activity, fluorescence polarization assay of HIF-1α peptide proline hydroxylation
Type: biochemical
SETTINGS: test compound's concentration 1 μM; Test 2, fluorescence polarization assay; read-out: Percent inhibition (% at 1 μM)
The label depends only on inhibition at 1 µM: TRUE if it is at least 90%, FALSE if it is smaller.

Hi, just wondering whether O=C(O)CNC(=O)C1=C(O)CCN(Cc2cccc(Cl)c2)C1=O shows inhibition at 1 µM of 90% or higher.
FALSE

Hi, just wondering whether O=C(O)CNC(=O)C1=C(O)CC2(CCN(C(=O)c3ccccc3)CC2)N(Cc2ccccc2)C1=O shows inhibition at 1 µM of 90% or higher.
FALSE

Hi, just wondering whether Cc1ccc(Oc2ccc(CN3CCC(O)=C(C(=O)NCC(=O)O)C3=O)cc2)nc1 shows inhibition at 1 µM of 90% or higher.
TRUE

Hi, just wondering whether O=C(O)CNC(=O)C1=C(O)C2(CCCCC2)CN(Cc2cnc(-c3ccccc3)s2)C1=O shows inhibition at 1 µM of 90% or higher.
TRUE

Hi, just wondering whether Cn1cc(CN2CCC(O)=C(C(=O)NCC(=O)O)C2=O)cn1 shows inhibition at 1 µM of 90% or higher.
FALSE

---

TESTED SYSTEM: human PHD2 (Homo sapiens (Human), UniProt Q9GZT9)
Sequence (Q9GZT9 whole entry): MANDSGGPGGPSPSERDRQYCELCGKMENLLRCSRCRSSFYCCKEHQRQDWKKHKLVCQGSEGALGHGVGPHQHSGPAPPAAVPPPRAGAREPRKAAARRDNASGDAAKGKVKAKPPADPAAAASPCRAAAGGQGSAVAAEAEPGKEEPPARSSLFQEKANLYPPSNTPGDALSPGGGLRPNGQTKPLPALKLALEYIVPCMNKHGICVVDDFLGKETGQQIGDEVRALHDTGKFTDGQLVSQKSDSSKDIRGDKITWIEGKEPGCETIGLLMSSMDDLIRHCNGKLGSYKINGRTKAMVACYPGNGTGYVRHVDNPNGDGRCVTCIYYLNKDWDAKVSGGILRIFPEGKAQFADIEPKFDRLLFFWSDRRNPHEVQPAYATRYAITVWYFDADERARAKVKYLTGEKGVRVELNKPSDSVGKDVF
ASSAY DETAILS: Test 2: human PHD2 inhibitory activity, fluorescence polarization assay of HIF-1α peptide proline hydroxylation
Type: biochemical
SETTINGS: test compound's concentration 1 μM; Test 2, fluorescence polarization assay; read-out: Percent inhibition (% at 1 μM)
MEASUREMENT KIND: inhibition at 1 µM (%)
Write down the numeric answer in % and omit the unit.

# return inhibition at 1 µM for O=C(O)CNC(=O)C1=C(O)CC2(CCC2)N(Cc2ccc(Cl)c(Cl)c2)C1=O [Ex. 1-167] , test system: human PHD2 (Homo sapiens (Human), UniProt Q9GZT9)
88

# return inhibition at 1 µM for Cc1ccc(Oc2ccc(CN3C(=O)C(C(=O)NCC(=O)O)=C(O)CC3(C)C)cn2)cc1 [Ex. 1-206] , test system: human PHD2 (Homo sapiens (Human), UniProt Q9GZT9)
93

# return inhibition at 1 µM for O=C(O)CNC(=O)C1=C(O)CCN(C[C@H]2CC[C@H](Oc3ccc(F)cn3)CC2)C1=O [Ex. 1-412] , test system: human PHD2 (Homo sapiens (Human), UniProt Q9GZT9)
87

# return inhibition at 1 µM for CC(C)C1CN(Cc2ccc(C(F)(F)F)cc2)C(=O)C(C(=O)NCC(=O)O)=C1O (stereo not shown) [Ex. 1-197] , test system: human PHD2 (Homo sapiens (Human), UniProt Q9GZT9)
78

# return inhibition at 1 µM for O=C(O)CNC(=O)C1=C(O)CCN(Cc2cnc(N3CCOCC3)s2)C1=O [Ex. 1-340] , test system: human PHD2 (Homo sapiens (Human), UniProt Q9GZT9)
69

# return inhibition at 1 µM for CN1CCC(O)=C(C(=O)NCC(=O)O)C1=O [Ex. 1-309] , test system: human PHD2 (Homo sapiens (Human), UniProt Q9GZT9)
58

# return inhibition at 1 µM for O=C(O)CNC(=O)C1=C(O)CCN(Cc2ccc(-c3ccccc3)nc2)C1=O [Ex. 1-73] , test system: human PHD2 (Homo sapiens (Human), UniProt Q9GZT9)
90

# return inhibition at 1 µM for O=C(O)CNC(=O)C1=C(O)CCN(Cc2ccccc2)C1=O [Ex. 1-21] , test system: human PHD2 (Homo sapiens (Human), UniProt Q9GZT9)
73

# return inhibition at 1 µM for O=C(O)CNC(=O)C1=C(O)CCN(Cc2ccc(C(=O)NCCO)cc2)C1=O [Ex. 1-347] , test system: human PHD2 (Homo sapiens (Human), UniProt Q9GZT9)
55

# return inhibition at 1 µM for CS(=O)(=O)c1ccc(CN2CC3(CCCCC3)C(O)=C(C(=O)NCC(=O)O)C2=O)cc1 [Ex. 1-331] , test system: human PHD2 (Homo sapiens (Human), UniProt Q9GZT9)
75

# return inhibition at 1 µM for Cc1ccc(CN2CC3(CCOCC3)C(O)=C(C(=O)NCC(=O)O)C2=O)cc1 [Ex. 1-89] , test system: human PHD2 (Homo sapiens (Human), UniProt Q9GZT9)
72

# return inhibition at 1 µM for O=C(O)CNC(=O)C1=C(O)CC2(COC2)N(Cc2ccc(C(F)(F)F)cc2)C1=O [Ex. 1-124] , test system: human PHD2 (Homo sapiens (Human), UniProt Q9GZT9)
79

# return inhibition at 1 µM for O=C(O)CNC(=O)C1=C(O)[C@@H]2CCCC[C@@H]2N(Cc2ccc(-c3ccccc3)cc2)C1=O [Ex. 1-51] , test system: human PHD2 (Homo sapiens (Human), UniProt Q9GZT9)
73

# return inhibition at 1 µM for Cc1ccc(-c2ccc(CN3CCC(O)=C(C(=O)NCC(=O)O)C3=O)nc2)cc1 [Ex. 2-44] , test system: human PHD2 (Homo sapiens (Human), UniProt Q9GZT9)
96

# return inhibition at 1 µM for O=C(O)CNC(=O)C1=C(O)CCN(c2ccc(Oc3ccccc3)cc2)C1=O [Ex. 1-40] , test system: human PHD2 (Homo sapiens (Human), UniProt Q9GZT9)
91

# return inhibition at 1 µM for CC(C)[C@H]1CC(O)=C(C(=O)NCC(=O)O)C(=O)N1Cc1ccc(OCC2CC2)cc1 [Ex. 6-27] , test system: human PHD2 (Homo sapiens (Human), UniProt Q9GZT9)
51

# return inhibition at 1 µM for Cc1cccc(COc2ccc(CN3CCC(O)=C(C(=O)NCC(=O)O)C3=O)cc2)c1 [Ex. 1-364] , test system: human PHD2 (Homo sapiens (Human), UniProt Q9GZT9)
97

# return inhibition at 1 µM for O=C(O)CNC(=O)C1=C(O)C2(CCCCC2)CN(Cc2ccc(OCC3CC3)cc2)C1=O [Ex. 6-23] , test system: human PHD2 (Homo sapiens (Human), UniProt Q9GZT9)
85

# return inhibition at 1 µM for O=C(O)CNC(=O)C1=C(O)CCN(Cc2ccc(-c3ccc(C(F)(F)F)nc3)cc2)C1=O [Ex. 2-21] , test system: human PHD2 (Homo sapiens (Human), UniProt Q9GZT9)
93

# return inhibition at 1 µM for COc1ccc(CN2CCC(O)=C(C(=O)NCC(=O)O)C2=O)c(C)c1 [Ex. 1-62] , test system: human PHD2 (Homo sapiens (Human), UniProt Q9GZT9)
68

# return inhibition at 1 µM for O=C(O)CNC(=O)C1=C(O)CCN(Cc2ccc(-c3ccc(F)cc3)c(F)c2)C1=O [Ex. 2-29] , test system: human PHD2 (Homo sapiens (Human), UniProt Q9GZT9)
95

# return inhibition at 1 µM for O=C(O)CNC(=O)C1=C(O)CCN(Cc2ccc(OCc3ccc(Cl)cc3)cc2)C1=O [Ex. 1-242] , test system: human PHD2 (Homo sapiens (Human), UniProt Q9GZT9)
101

# return inhibition at 1 µM for O=C(O)CNC(=O)C1=C(O)CCN(Cc2ccccc2-c2ccccc2)C1=O [Ex. 1-25] , test system: human PHD2 (Homo sapiens (Human), UniProt Q9GZT9)
76

# return inhibition at 1 µM for CCCNC(=O)c1ccc(CN2CCC(O)=C(C(=O)NCC(=O)O)C2=O)cc1 [Ex. 1-322] , test system: human PHD2 (Homo sapiens (Human), UniProt Q9GZT9)
77

# return inhibition at 1 µM for O=C(O)CNC(=O)C1=C(O)CC2(CCOCC2)N(Cc2cnc(-c3ccccc3)s2)C1=O [Ex. 1-98] , test system: human PHD2 (Homo sapiens (Human), UniProt Q9GZT9)
88

# return inhibition at 1 µM for O=C(O)CNC(=O)C1=C(O)CCN(Cc2ccc(OCc3ccc(Cl)cc3)nc2)C1=O [Ex. 1-419] , test system: human PHD2 (Homo sapiens (Human), UniProt Q9GZT9)
98

# return inhibition at 1 µM for CC1C(O)=C(C(=O)NCC(=O)O)C(=O)N1Cc1ccc(-c2ccccc2)cc1 (stereo not shown) [Ex. 1-323] , test system: human PHD2 (Homo sapiens (Human), UniProt Q9GZT9)
87

# return inhibition at 1 µM for Cc1cnc(COc2ccc(CN3CCC(O)=C(C(=O)NCC(=O)O)C3=O)cc2)s1 [Ex. 1-406] , test system: human PHD2 (Homo sapiens (Human), UniProt Q9GZT9)
86

# return inhibition at 1 µM for CC1CN(Cc2ccc(Cl)cc2)C(=O)C(C(=O)NCC(=O)O)=C1O (stereo not shown) [Ex. 1-162] , test system: human PHD2 (Homo sapiens (Human), UniProt Q9GZT9)
77

# return inhibition at 1 µM for O=C(O)CNC(=O)C1=C(O)CCN(CCc2ccc(C(F)(F)F)cc2)C1=O [Ex. 1-176] , test system: human PHD2 (Homo sapiens (Human), UniProt Q9GZT9)
80

# return inhibition at 1 µM for O=C(O)CNC(=O)C1=C(O)CCN(Cc2ccc(OCc3ccccc3)nc2)C1=O [Ex. 1-380] , test system: human PHD2 (Homo sapiens (Human), UniProt Q9GZT9)
92

# return inhibition at 1 µM for O=C(O)CNC(=O)C1=C(O)CC2(CNC(=O)C2)N(Cc2ccc(-c3ccccc3)cc2)C1=O (stereo not shown) [Ex. 1-314] , test system: human PHD2 (Homo sapiens (Human), UniProt Q9GZT9)
86

# return inhibition at 1 µM for O=C(O)CNC(=O)C1=C(O)CCN(Cc2ccc(Oc3ccccc3)cc2)C1=O [Ex. 1-28] , test system: human PHD2 (Homo sapiens (Human), UniProt Q9GZT9)
92

# return inhibition at 1 µM for O=C(O)CNC(=O)C1=C(O)CCN(Cc2ccc(COc3ccccc3)cc2)C1=O [Ex. 1-416] , test system: human PHD2 (Homo sapiens (Human), UniProt Q9GZT9)
95
